- SYSTEM UNDER TEST: T1, Recombinant TNFα containing an N-terminal 13-aa ybbR tag (human, UniProt P01375 77-233, biotin at the ybbR tag in the ELISA assays)
- T1 construct: Expressed in E. coli; Same construct used unlabelled (FA) and biotinylated on NeutrAvidin (ELISA); also called tumor necrosis factor-alpha; human TNFα; not shown: N-terminal 13-aa ybbR tag
- T1 sequence (P01375 77-233): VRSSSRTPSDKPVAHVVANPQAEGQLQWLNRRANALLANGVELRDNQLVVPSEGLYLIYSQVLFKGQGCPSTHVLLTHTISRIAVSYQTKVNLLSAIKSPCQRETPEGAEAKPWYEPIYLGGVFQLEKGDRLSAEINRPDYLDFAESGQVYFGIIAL
- TEST: FA; against C1
Positions of bridges follow the written chain, without caps; N, C: chain ends. Non-standard residues stand in square brackets, D forms with d. Primed or numbered codes have the meaning given here. No end group written: not given here. FITC(3) = fluorescein isothiocyanate (N6-fluorescein-thiocarbamoyl on Lys); trimesoyl″ = benzene-1,3,5-tricarbonyl scaffold; FITC′ = fluorescein isothiocyanate, on Lys NZ; Phg = N[C@H](C(=O)O)c1ccccc1; Dap = NC[C@H](N)C(=O)O
Friendly reminder: Fold of Affinity Reduction below 4 fold is Condition met, at or above is Condition not met.

Bench note: check whether [Phg]Y[dA]KY[dF]G[dK]A[Dap]NNNK(FITC(3))-NH2 (linker N-4-10 via trimesoyl″) [Anticachexin C1 His9 → Ala, NNNK(FITC)-tagged] shows Fold of Affinity Reduction below 4 fold
Condition not met

In plain terms, does [Phg]Y[dA]KY[dF]A[dK]H[Dap]NNNK(FITC(3))-NH2 (linker N-4-10 via trimesoyl″) [Anticachexin C1 Gly7 → Ala, NNNK(FITC)-tagged] come in under 4 fold for Fold of Affinity Reduction?
Condition met

Dear colleague, could you confirm whether Fold of Affinity Reduction of [Phg]Y[dA]KA[dF]G[dK]H[Dap]NNNK(FITC′)-NH2 (bridge (positions not given here) via trimesoyl″; not fully specified (N-terminus, bridges); also: feature: K4 labeled with FITC) [Anticachexin C1 Tyr5 → Ala, NNNK(FITC)-tagged] falls below 4 fold? Thanks.
Condition not met

API: query returns whether the binder falls strictly under 4 fold in Fold of Affinity Reduction. Query: AY[dA]KY[dF]G[dK]H[Dap]NNNK(FITC(3))-NH2 (linker N-4-10 via trimesoyl″) [Anticachexin C1 Phg1 → Ala, NNNK(FITC)-tagged]
Condition met

State whether 4 fold exceeds Fold of Affinity Reduction recorded for [Phg]A[dA]KY[dF]G[dK]H[Dap]NNNK(FITC′)-NH2 (bridge (positions not given here) via trimesoyl″; not fully specified (N-terminus, bridges); also: feature: K4 labeled with FITC) [Anticachexin C1 Tyr2 → Ala, NNNK(FITC)-tagged] .
Condition not met

Item [Phg]Y[dA]KY[dF]G[dA]H[Dap]NNNK(FITC(3))-NH2 (linker N-4-10 via trimesoyl″) [Anticachexin C1 D-Lys8 → D-Ala, NNNK(FITC)-tagged] : Fold of Affinity Reduction beneath 4 fold, strictly?
Condition not met
